Values from patent US11504441B2

Test: in vivo
Set-up: species or system mice
Conditions: male, NODSCID 1L2RγKO, mouse, iv, total radioactivity, Salivary uptake
parameter_measured: tissue uptake at 120 h (%ID/g)

| compound | number |
| --- | --- |
| O=C(O)CCC[C@H](NC(=O)N[C@@H](CCCCNC(=O)[C@H](Cc1c2ccccc2cc2ccccc12)NC(=O)[C@H]1CC[C@H](CNC(=O)CN2CCN(CC(=O)O)CCN(CC(=O)O)CCN(CC(=O)O)CC2)CC1)C(=O)O)C(=O)O [177Lu-HTK03149, metal not drawn] | 0.03 |
| COc1ccc(CCCC(=O)NCC(=O)N[C@@H](CCCCNC(=O)CN2CCN(CC(=O)O)CCN(CC(=O)O)CCN(CC(=O)O)CC2)C(=O)NC[C@H]2CC[C@H](C(=O)N[C@@H](Cc3c4ccccc4cc4ccccc34)C(=O)NCCCC[C@H](NC(=O)N[C@@H](CCCC(=O)O)C(=O)O)C(=O)O)CC2)cc1 [177Lu-HTK03170, metal not drawn] | 0.05 |
| COc1ccc(CCCC(=O)NCC(=O)N[C@@H](CCCCNC(=O)CN2CCN(CC(=O)O)CCN(CC(=O)O)CCN(CC(=O)O)CC2)C(=O)NC[C@H]2CC[C@H](C(=O)N[C@@H](Cc3c4ccccc4cc4ccccc34)C(=O)NCCCC[C@H](NC(=O)N[C@@H](COCC(=O)O)C(=O)O)C(=O)O)CC2)cc1 [177Lu-HTK04028, metal not drawn] | 0.11 |
| COc1ccc(CCCC(=O)NCC(=O)N[C@@H](CCCCNC(=O)CN2CCN(CC(=O)O)CCN(CC(=O)O)CCN(CC(=O)O)CC2)C(=O)NC[C@H]2CC[C@H](C(=O)N[C@@H](Cc3c4ccccc4cc4ccccc34)C(=O)NCCCC[C@H](NC(=O)N[C@@H](CSCC(=O)O)C(=O)O)C(=O)O)CC2)cc1 [177Lu-HTK04048, metal not drawn] | 0.14 |
| O=C(O)CCC[C@H](NC(=O)N[C@@H](CCCCNC(=O)[C@H](Cc1c2ccccc2cc2ccccc12)NC(=O)[C@H]1CC[C@H](CNC(=O)[C@H](CCCCNC(=O)CN2CCN(CC(=O)O)CCN(CC(=O)O)CCN(CC(=O)O)CC2)NC(=O)CNC(=O)CCCc2ccc(Cl)cc2)CC1)C(=O)O)C(=O)O [177Lu-HTK03153, metal not drawn] | 0.37 |
